Tested on: PBMC
Assay: Cytotoxicity against human PBMC
Assay type: cell-based
measured_quantity: pIC50
Scale: negative log10 of molar concentration, which is what pIC50 denotes.

(Q) Returns the measured pIC50 for the input compound. Input: Cc1cc(C)n2c1C(c1ccc(OCc3cn(C4C5=C(OC4(C)C)c4ccccc4C(=O)C5=O)nn3)cc1)=C1C=CC=[N+]1[B-]2(F)F (configuration not stated)
(A) 5.49

---

Test system: Trypanosoma cruzi
Experiment: Anti-parasitic activity against trypomastigotes form of Trypanosoma cruzi after 24 hrs
Assay type: functional, organism-based
measured_quantity: IC50 (µM)
The answer is to be given in µM; state only the numeric part.

1) O=C1C=CC(=O)c2c(Sc3ccc(Br)cc3)cccc21 :: 6.6

(Q) Returns the measured IC50 for the input molecule. Input: COc1ccc(Sc2cccc3c2C(=O)C=CC3=O)cc1
(A) 7.6

(Q) Returns the measured IC50 for the input molecule. Input: Cc1ccc(Sc2cccc3c2C(=O)C=CC3=O)cc1
(A) 2.5

(Q) Returns the measured IC50 for the input molecule. Input: O=C1C=CC(=O)c2c(Sc3ccccc3)cccc21
(A) 12.4

(Q) Returns the measured IC50 for the input molecule. Input: O=C1C=CC(=O)c2c(SCc3ccccc3)cccc21
(A) 14.3
